- Test system: LCE3D (late cornified envelope 3D)
- ASSAY: RT-qPCR analysis of gene expression, LCE3D transcript
- Format: cell-based
- EXPERIMENTAL_CONTEXT: normal human epidermal keratinocytes, 24 h, 0.1 mg/mL, normalised to GAPDH
Readings of LCE3D Fold change vs Control (Fc) for the listed molecules
MEASURE_NAME: LCE3D Fold change vs Control (Fc) (fold change)

[
  {
    "MOLECULE": "O=c1c(O[C@@H]2O[C@H](CO)[C@@H](O)[C@H](O)[C@H]2O)c(-c2ccc(O)c(O)c2)oc2cc(O)cc(O)c12 [Isoquercitrin, isoquercitrin]",
    "EXPERIMENTAL_VALUE": 0.47
  },
  {
    "MOLECULE": "O=C(O)[C@H]1O[C@@H](Oc2cc(O)c3c(=O)cc(-c4ccc(O)c(O)c4)oc3c2)[C@H](O)[C@@H](O)[C@@H]1O [Luteoline-7-O-glucuronide, luteoline-7-O-glucuronide]",
    "EXPERIMENTAL_VALUE": 0.44
  },
  {
    "MOLECULE": "O=c1c(O)c(-c2ccc(O)c(O)c2)oc2cc(O)cc(O)c12 [Quercetin, quercetin]",
    "EXPERIMENTAL_VALUE": 0.2
  },
  {
    "MOLECULE": "O=c1c(O[C@@H]2O[C@H](CO)[C@H](O)[C@H](O)[C@H]2O)c(-c2ccc(O)c(O)c2)oc2cc(O)cc(O)c12 [Hyperoside, hyperoside]",
    "EXPERIMENTAL_VALUE": 0.61
  }
]
